Data origin, for the record: ChEMBL document CHEMBL1143844

assay: Inhibition of HIV1 pNL4-3 reverse transcriptase 115F mutant in presence of 5 mM ATP by heteropolymeric DNA polymerase assay; set-up: species or system Human immunodeficiency virus 1
test readout: IC50 (µM)
The answer is to be given in µM; state only the numeric part.

{"compound": "C[C@H](Cn1cnc2c(N)ncnc21)OCP(=O)(O)OP(=O)(O)OP(=O)(O)O", "IC50 [µM]": 3.7}
{"compound": "Cc1cn([C@H]2CO[C@@H](COP(=O)(O)OP(=O)(O)OP(=O)(O)O)O2)c(=O)[nH]c1=O", "IC50 [µM]": 0.2}

Input: Provide IC50 value for the following compound: Cc1cn([C@H]2C[C@H](N=[N+]=[N-])[C@@H](COP(=O)(O)OP(=O)(O)OP(=O)(O)O)O2)c(=O)[nH]c1=O [ZIDOVUDINE TRIPHOSPHATE]
Output: 0.55

Input: Provide IC50 value for the following compound: Nc1nc(=O)c2ncn([C@H]3C=C[C@@H](COP(=O)(O)OP(=O)(O)OP(=O)(O)O)C3)c2[nH]1 [CARBOVIR 5'-TRIPHOSPHATE, (-)-]
Output: 3.6

====

experiment: Inhibition of HIV1 reverse transcriptase wild type HXB2(b) in presence of 5 mM ATP by heteropolymeric DNA polymerase assay; design: species or system Human immunodeficiency virus 1
IC50 values for the compounds below.
The answer is to be given in nM; state only the numeric part.

{"compound": "Cc1cn([C@H]2CO[C@@H](COP(=O)(O)OP(=O)(O)OP(=O)(O)O)O2)c(=O)[nH]c1=O", "value": 380}
{"compound": "C[C@H](Cn1cnc2c(N)ncnc21)OCP(=O)(O)OP(=O)(O)OP(=O)(O)O", "value": 3200}

Attention now turns to another entry.
Input: Provide IC50 value for the following compound: Cc1cn([C@H]2C[C@H](N=[N+]=[N-])[C@@H](COP(=O)(O)OP(=O)(O)OP(=O)(O)O)O2)c(=O)[nH]c1=O [ZIDOVUDINE TRIPHOSPHATE]
Output: 480

====

assay: Inhibition of HIV1 reverse transcriptase wild type HXB2(a) by heteropolymeric DNA polymerase assay; parameters: species or system Human immunodeficiency virus 1
pIC50 values for the compounds below.
# reply with the number alone; pIC50 is -log10 of concentration in mol/L

A selection of reference data follows.
{"compound": "Nc1nc2c(ncn2[C@H]2CO[C@@H](COP(=O)(O)OP(=O)(O)OP(=O)(O)O)O2)c(=O)[nH]1", "test readout": "pIC50", "value": 6.92}
{"compound": "Nc1nc(=O)c2ncn([C@H]3C=C[C@@H](COP(=O)(O)OP(=O)(O)OP(=O)(O)O)C3)c2[nH]1 [CARBOVIR 5'-TRIPHOSPHATE, (-)-]", "test readout": "pIC50", "value": 5.96}
{"compound": "C[C@H](Cn1cnc2c(N)ncnc21)OCP(=O)(O)OP(=O)(O)OP(=O)(O)O", "test readout": "pIC50", "value": 5.80}

Attention now turns to another entry.
Input: Provide pIC50 value for the following compound: Cc1cn([C@H]2C[C@H](N=[N+]=[N-])[C@@H](COP(=O)(O)OP(=O)(O)OP(=O)(O)O)O2)c(=O)[nH]c1=O [ZIDOVUDINE TRIPHOSPHATE]
Output: 6.74
